EXPERIMENTAL DETAILS: In vivo PK profiling
CONDITION SUMMARY: male, C57BL/6, mouse, plasma; mice, IV (5 mg/kg); read-out: AUCinf
MEASUREMENT KIND: AUC(0-inf) at 8 h (µM·h)
Answers are plain numbers, in µM·h.

For reference, reported AUC(0-inf) at 8 h for CC[C@@H](C(=O)OCCOCCOCCOCC(=O)N[C@H](C(=O)N1C[C@H](O)C[C@H]1C(=O)NCc1ccc(-c2scnc2C)cc1)C(C)(C)C)[C@@H]1N=C(c2ccc(Cl)cc2)c2c(sc(C)c2C)-n2c(C)nnc21 stands at 1.72
